Taken from patent US10450263B2.

Test system: Chikungunya virus
Test: Evaluation of antiviral activity against Chikungunya virus (EC90)
Type: cell-based
Details: Chikungunya virus, read-out: EC90 (μM) CHIKV, concentration required for 90% inhibition of CHIKV
Measured parameter: EC90 (µM)
One number for each entry, in µM.

{"Compound": "COc1cc2c(cc1NC(=O)c1ccc(C(C)(C)C)s1)CCCCC2 [Compound 38]", "System": "Chikungunya virus", "Measured parameter": "EC90", "Numeric result": 3.1}
{"Compound": "COc1cc2c(cc1NC(=O)c1cc(C)n(C(C)(C)C)n1)CCCCC2 [Compound 61]", "System": "Chikungunya virus", "Measured parameter": "EC90", "Numeric result": 5.64}

Now, please, on to the next compound.
Identify the reported EC90 for the following entry. CC(C)(C)c1ccc(C(=O)Nc2cc3c(cc2O)CCCCC3)cc1 [Compound 15]
0.4
